- method: Plasma and brain CX157 concentrations after oral dosing in rats
- measurement conditions: male, Sprague-Dawley, rat, brain and plasma, po, 10 mg/kg, mean brain/plasma ratio of CX157 concentrations, 10 mg/kg oral, 4 h
readout label: Kp at 4 h
Respond with the number and no other words.

So for O=S1(=O)c2ccc(F)cc2Oc2cc(OCC(F)(F)F)ccc21 , the logged Kp at 4 h turned out to be 1.9

----------
- method: Phase 1 single dose escalation pharmacokinetics
- measurement conditions: male, human, plasma, po, 40 mg
readout label: AUC(0-inf) (ng·h/mL)
Field: numeric (ng·h/mL). Do not append units.

So for O=S1(=O)c2ccc(F)cc2Oc2cc(OCC(F)(F)F)ccc21 , the logged AUC(0-inf) turned out to be 321
